- Test system: IGROV-1
- PROCEDURE SUMMARY: NCI tumour cell line growth inhibition, 48 h
Activity calls are given as the source filed them. No stated cut-off is given here; in the data, active = GI50 up to about 1.1 µM and inactive = higher.
MEASUREMENT NAME: GI50

Solved entries:
Data point: Cc1ccccc1NC(=O)CC(=O)NNC(Sc1ccccc1)c1cc(/N=N/c2ccc(Br)cc2)ccc1O (centres undefined) ; GI50 = 8.02 µM (inactive)

Data point: CC(C)(C)C1C=C(Sc2ccccc2)C(=O)O1 (centres undefined) ; GI50 = 48.9 µM (inactive)

Data point: COc1ccc2nc3ccc(OC)cc3c([S+]([O-])Cc3ccc([N+](=O)[O-])cc3)c2c1 (centres undefined) ; GI50 = 5.3 µM (inactive)

Further cases:
Data point: COC(=O)/C=C/CC(=O)NS(C)(=O)=O ; GI50 = > 10 µM (inactive)

Data point: N=C(N)NCCCC(NC(=O)OCCCCCn1ccc(N)nc1=O)C(=O)O (centres undefined) ; GI50 = > 100 µM (inactive)

Data point: O=c1cnn(C/C=C/CBr)c(=O)[nH]1 ; GI50 = 16.2 µM (inactive)

Data point: O=[N+]([O-])C(/C(Cl)=C(\Cl)Br)=C(/Cl)SCc1ccccc1 ; GI50 = 5.9 µM (inactive)

Data point: CC1CCCCN1CC(=O)c1ccc2c(c1)Sc1ccccc1O2 (centres undefined) ; GI50 = 6.49 µM (inactive)

Data point: COc1c2c(cc3c1C1(O)Cc4ccc5c(c4C[N+]1(C)CC3)OCO5)OCO2 (centres undefined) ; GI50 = > 100 µM (inactive)
